Please go through the items and note down their TGI.
test system: OVCAR-8 ovarian; assay: NCI tumour cell line growth inhibition, 48 h

Reference set (6 entries):
C=CCCC(=O)N1C=CC(=O)[C@H](O)[C@@H]1/C=C/c1ccccc1    > 32.5 µM
COc1cc(-c2nn(-c3ccc(NC(=O)c4cc(Cl)cc(Cl)c4)cc3)cc2-c2ccncc2)ccc1Cl    > 100 µM
CC(=O)O[C@H]1C=CC23OC(=O)[C@]1(C)[C@H]2[C@H](C(=O)O)C12CC(=O)[C@@](CO)(CC[C@H]13)C2    > 100 µM
C#CCN(C)C(=O)N(CC#C)N=O    > 100 µM
COc1ccc(C[C@@H]2OC3(C=CC(=O)C=C3)O[C@H]2Cc2ccc(OC)cc2)cc1    0.645 µM
N#Cc1cccc(OCc2ccccc2COc2cccc(C#N)c2)c1    > 100 µM

Here are 8 compounds. What values of TGI were reported for them?
1. CN(C)CCn1nc(N)c2nc3cc(C(F)(F)F)ccc3nc21
2. CCCCNC(=S)Nc1nc(C(=O)NNC(=O)c2ccccc2)cs1
3. C1C[OH+]CC[OH+]CC[OH+]CC[OH+]CC[OH+]CC[OH+]1.[Cl-].[Nb+5]
4. C#CCN(Cc1nc2cc(C(F)(F)F)ccc2nc1-c1ccccc1)c1ccc(F)c(F)c1
5. CCOC(=O)c1ccccc1-c1c2ccc(=[N+](C)C)cc-2oc2cc(N(C)C)ccc12
6. Cc1cc(O)c(C(C)C)cc1N=Cc1ccccc1O
7. COC(=O)C(Cc1nc2ccccc2[nH]c1=O)C(=O)C(=O)Nc1cc(C(F)(F)F)ccc1Cl (stereo not given)
8. OCC(O)C(OC1OC(CO)C(O)C(O)C1O)c1nn(-c2ccccc2)c2nc3cc(Cl)ccc3nc12 (stereo not given)

Result:
["> 100 µM", "66.9 µM", "> 100 µM", "> 100 µM", "> 22.8 µM", "> 29.6 µM", "30 µM", "> 100 µM"]

Here are 4 compounds. What values of TGI were reported for them?
1. O=C(Nc1ccc(I)cc1F)c1cc(I)ccc1O
2. CC[C@H](NC(=O)[C@H](CS(=O)(=O)CC1CC1)N[C@@H](c1ccc(F)cc1)C(F)(F)F)C(=O)C(=O)NC1CC1
3. CCCCCCNC(=O)Oc1ccc(/C(=C(\C)c2ccccc2)c2ccc(OCCN(CC)CC)cc2)cc1
4. COc1ccc(C(=O)O/N=C2/CCC/C2=C\c2ccccc2)cc1

Result:
> 100 µM
> 100 µM
12.9 µM
> 100 µM

Here are 2 compounds. What values of TGI were reported for them?
1. C[N+](C)([O-])CCCNc1ccnc2cccc([N+](=O)[O-])c12
2. O=C(Nc1cc(-c2cccnc2)nc(NCCCN2CCOCC2)n1)c1cc(Br)cc(C(F)(F)F)c1

Result:
["> 100 µM", "8.59 µM"]

Cited source: PubChem BioAssay (NCI)
